Assay: Liver-to-plasma partitioning (Kp)
Format: in vivo, Sprague Dawley rats
Settings: female, Sprague Dawley, rat, oral, 17 mg/kg/day, F, 5 days, mean ± SD n=4, read-out: Liver Kp (liver-to-plasma ratio)
PARAMETER: Kp at 120 h
Answers are plain numbers.

Kindly note the recorded Kp at 120 h for O=C(O)C(F)(OC(F)(F)C(F)(OC(F)(F)C(F)(OC(F)(F)C(F)(F)C(F)(F)F)C(F)(F)F)C(F)(F)F)C(F)(F)F (stereo not shown) , which is 0.903

---

Assay: Plasma HFPO-TeA dosimetry
Type: in vivo, Sprague Dawley rats
Conditions: female, Sprague Dawley, rat, plasma, oral, 2.3 mg/kg/day, F, 5 days of exposure, mean ± SD n=4; read-out: 5D Plasma Conc.
PARAMETER: concentration at 5 days (µM)
One number for each entry, in µM.

Lab note: measured concentration at 5 days of O=C(O)C(F)(OC(F)(F)C(F)(OC(F)(F)C(F)(OC(F)(F)C(F)(F)C(F)(F)F)C(F)(F)F)C(F)(F)F)C(F)(F)F (stereo not shown) was 8.92
